compounds and their reported selectivity ratio
experiment: Therapeutic index, ratio of IC50 for human H9 lymphocytes to EC50 for HIV1; conditions: HIV-1, read-out: Ratio IC50/EC50

Some solved cases for reference:
INSERT INTO assay_data (compound, measured) VALUES
  ('CC(=O)OC[C@]12[C@H](OC(C)=O)[C@H](OC(C)=O)[C@@H]3[C@@H](OC(C)=O)[C@@]14O[C@@]3(C)COC(=O)c1cccnc1C(C)C(C)C(=O)O[C@@H]([C@H](OC(=O)c1ccco1)[C@@H]2OC(C)=O)[C@]4(C)O (some centres undefined) [HYPONINE F]', '> 2.8'),
  ('CC(=O)OC[C@]12[C@H](OC(C)=O)[C@H](OC(C)=O)[C@@H]3[C@@H](OC(C)=O)[C@@]14O[C@@]3(C)COC(=O)c1cccnc1CCC(C)(O)C(=O)O[C@@H]([C@H](OC(=O)c1ccco1)[C@@H]2OC(C)=O)[C@]4(C)O (some centres undefined) [WILFORTRINE]', '> 1000'),
  ('COC(=O)C[C@@H]1C(=O)CC[C@H](C)C(=O)O[C@@H]2[C@@H]3[C@@H](OC(C)=O)[C@@]45O[C@@]3(C)COC(=O)c3cnccc3[C@@H](C)[C@@H](O)C(=O)O[C@@H]([C@H](OC(C)=O)[C@H](OC(C)=O)[C@@]4(COC1=O)[C@@H]2OC(C)=O)[C@]5(C)O [TRIPTONINE B]', '> 1000');

We next turn to a different compound, shown below.
Measured selectivity ratio of CC(=O)OC[C@]12[C@H](OC(C)=O)[C@H](OC(C)=O)[C@@H]3[C@@H](OC(C)=O)[C@@]14O[C@@]3(C)COC(=O)c1cccnc1CCC(C)(O)C(=O)O[C@@H]([C@H](O)[C@@H]2OC(C)=O)[C@@]4(C)O (some centres undefined) [TRIPFORDINE A] : 1.9

====

experiment: Therapeutic index, ratio of IC50 for human H9 lymphocytes to EC50 for HIV1; conditions: HIV-1, read-out: Ratio IC50/EC50
Property: selectivity ratio; scope: individual molecules

INSERT INTO measurements (molecule, measured) VALUES
  ('CC(=O)OC[C@]12[C@H](OC(C)=O)[C@H](OC(C)=O)[C@@H]3[C@@H](O)[C@@]14O[C@@]3(C)COC(=O)c1cccnc1C(C)C(C)C(=O)O[C@@H]([C@H](OC(C)=O)[C@@H]2OC(C)=O)[C@]4(C)O (some centres not stated)', '> 113'),
  ('COC(=O)C[C@@H]1C(=O)CCC(C)C(=O)O[C@@H]2[C@@H]3[C@@H](OC(C)=O)[C@@]45O[C@@]3(C)COC(=O)c3cccnc3C(C)C(C)C(=O)O[C@@H]([C@H](OC(C)=O)[C@H](OC(C)=O)[C@@]4(COC1=O)[C@@H]2OC(C)=O)[C@]5(C)O (some centres not stated)', '> 39.4'),
  ('CC(=O)O[C@@H]1[C@@H]2[C@@H](OC(C)=O)[C@@]34O[C@@]2(C)COC(=O)c2cnccc2C(C)C(C)(O)C(=O)O[C@@H]([C@H](OC(C)=O)[C@H](OC(C)=O)[C@@]3(COC(=O)c2ccco2)[C@@H]1OC(C)=O)[C@]4(C)O (some centres not stated)', '> 769'),
  ('CC(=O)OC[C@]12[C@H](OC(C)=O)[C@H](OC(C)=O)[C@@H]3[C@@H](OC(C)=O)[C@@]14O[C@@]3(C)COC(=O)c1cccnc1CCC(C)(O)C(=O)O[C@@H]([C@H](OC(=O)c1ccccc1)[C@@H]2OC(C)=O)[C@]4(C)O (some centres not stated)', '> 200'),
  ('CC(=O)OC[C@]12[C@H](OC(C)=O)[C@H](OC(C)=O)[C@@H]3[C@@H](OC(C)=O)[C@@]14O[C@@]3(C)COC(=O)c1cccnc1C(C)C(C)C(=O)O[C@@H]([C@H](OC(=O)c1ccccc1)[C@@H]2OC(C)=O)[C@@]4(C)O (some centres not stated)', '> 208'),
  ('CC(=O)OC[C@]12[C@H](OC(C)=O)[C@H](OC(C)=O)[C@@H]3[C@@H](OC(C)=O)[C@@]14O[C@@]3(C)COC(=O)c1cnccc1C(C)C(C)(O)C(=O)O[C@@H]([C@H](OC(=O)c1ccco1)[C@@H]2OC(C)=O)[C@]4(C)O (some centres not stated)', '> 1000');

Field selectivity ratio (entry CC(=O)O[C@@H]1[C@H](OC(C)=O)[C@@]2(COC(=O)c3ccco3)[C@H](OC(C)=O)C(=O)[C@@H]3[C@@H](OC(C)=O)[C@@]24O[C@@]3(C)COC(=O)c2cccnc2C(C)C(C)C(=O)O[C@@H]1[C@]4(C)O (some centres not stated) ) reads > 1000
